Where these numbers come from: patent US7348427B2

Tested on: E. faecalis ATCC 29212
Experiment: MIC, NCCLS broth microdilution assay
Type: cell-based, Enterococcus faecalis
Conditions: C = E. faecalis ATCC 29212
Attribute Measured: Minimum Inhibitory Concentration (MIC)

Consider the reported Minimum Inhibitory Concentration (MIC) for these compounds:
1. Cn1cc(NC(=O)c2cc(NC(=O)c3cc(NC(=O)c4cc(NC(=O)c5ccccc5F)cn4C)cn3C)cn2C)cc1C(=O)NCCN1CCSCC1 = +++ (+++ = MIC ≦ 4)
2. Cn1cc(NC(=O)c2cc(NC(=O)c3cc(NC(=O)c4ccc(C(F)(F)F)cc4)cn3C)cn2C)cc1C(=O)NCCN1CCOCC1 = ++ (++ = 4 < MIC < 12)
3. Cn1cc(NC(=O)c2cc(NC(=O)c3cc(NC(=O)c4ccc(F)cc4F)cn3C)c[nH]2)cc1C(=O)NCCN1CCOCC1 = ++ (++ = 4 < MIC < 12)
4. Cn1cc(NC(=O)c2cc(NC(=O)c3cc(NC(=O)c4ccc(F)cc4F)cn3C)cn2C)cc1C(=O)NCCCNC1CCCCC1 = +++ (+++ = MIC ≦ 4)

Okay, now this compound:
Query string: Query for E. faecalis ATCC 29212: what Minimum Inhibitory Concentration (MIC) does the record show for Cn1cc(NC(=O)c2cc(NC(=O)c3cc(NC(=O)c4ccc(F)cc4F)c[nH]3)cn2C)cc1C(=O)NCCN1CCC(F)(F)CC1 ?
Result string: +++ (+++ = MIC ≦ 4)

---

System: Streptococcus pneumoniae (ATCC 51422, a penicillin resistant strain (PRSP))
Assay: MIC, NCCLS broth microdilution assay
Format: cell-based
Conditions: I = S. pneumoniae ATCC 51422
Attribute Measured: Minimum Inhibitory Concentration (MIC)

1) Cn1cc(NC(=O)c2cc(NC(=O)c3cc(NC(=O)c4ccc(F)cc4F)cn3C)cn2C)cc1C(=O)NCCN1CCCCC1 [Compound B-6] = +++ (+++ = MIC ≦ 4)
2) Cn1cc(NC(=O)c2cc(NC(=O)c3cc(NC(=O)c4ccc(F)cc4F)cn3C)cn2C)cc1C(=O)NCCN1CCOCC1 [Compound B-1] = +++ (+++ = MIC ≦ 4)
3) CN(C)CCCn1cc(NC(=O)c2cc(NC(=O)c3cc(NC(=O)c4ccc(F)cc4F)cn3C)cn2C)cc1C(=O)NCCN1CCCCC1 [Compound D-2] = +++ (+++ = MIC ≦ 4)
4) Cc1cc(NC(=O)c2cc(NC(=O)c3cc(NC(=O)c4ccc(Cl)cc4F)c[nH]3)cn2CCCN(C)C)sn1 [Compound D-11] = +++ (+++ = MIC ≦ 4)

---

System: Enterococcus faecium (ATCC 51559, a vancomycin resistant strain (VRE))
Assay: MIC, NCCLS broth microdilution assay
Assay type: cell-based
Settings: D = E. faecium ATCC 51559
Attribute Measured: Minimum Inhibitory Concentration (MIC)

1. Cn1cc(NC(=O)c2cc(NC(=O)c3cc(NC(=O)c4ccc(Cl)c(Cl)c4)cn3C)cn2C)cc1C(=O)NCCN1CCOCC1 = +++ (+++ = MIC ≦ 4)
2. Cn1cc(NC(=O)c2cc(NC(=O)c3cc(NC(=O)c4ccc(F)cc4F)cn3C)cn2C)cc1C(=O)NCCN1CCCCC1 = +++ (+++ = MIC ≦ 4)
3. Cn1cc(NC(=O)c2cc(NC(=O)c3ccc(F)cc3)cn2C)cc1C(=O)NCCN1CCOCC1 = + (+ = 12 ≦ MIC ≦ 32)
4. Cc1cc(NC(=O)c2cc(NC(=O)c3cc(NC(=O)c4ccc(Cl)cc4F)c[nH]3)cn2CCN2CCOCC2)sn1 = +++ (+++ = MIC ≦ 4)
5. CN(C)CCCNC(=O)c1cc(NC(=O)c2cc(NC(=O)c3cc(NC(=O)c4ccc(Cl)cc4F)c[nH]3)cn2C)cn1C = + (+ = 12 ≦ MIC ≦ 32)

Okay, now this compound:
Query string: Query (compound): Cn1cc(NC(=O)c2cc(NC(=O)c3ccc(F)cc3F)cn2C)cc1C(=O)NCCN1CCSCC1 ; field requested: Minimum Inhibitory Concentration (MIC)
Result string: +++ (+++ = MIC ≦ 4)

---

Tested on: S. pneumoniae ATCC 49619
Experiment: MIC, NCCLS broth microdilution assay
Type: cell-based, Streptococcus pneumoniae
Settings: H = S. pneumoniae ATCC 49619
Attribute Measured: Minimum Inhibitory Concentration (MIC)

1) Cn1cc(NC(=O)c2cc(NC(=O)c3cc(NC(=O)c4ccc(Cl)cc4Cl)cn3C)cn2C)cc1C(=O)NCCN1CCOCC1 [Compound B-55] = +++ (+++ = MIC ≦ 4)
2) Cc1cc(NC(=O)c2cc(NC(=O)c3cc(NC(=O)c4ccc(Cl)cc4NCCN4CCCCC4)cn3C)c[nH]2)sn1 [Compound C-22] = +++ (+++ = MIC ≦ 4)
3) CCSCCCn1cc(NC(=O)c2cc(NC(=O)c3ccc(Cl)cc3SCC)cn2C)cc1C(=O)Nc1cc(C(=O)Nc2cc(C(=O)NCCN3CCOCC3)n(C)c2)n(C)c1 [Compound C-20] = +++ (+++ = MIC ≦ 4)

---

Test system: S. pneumoniae ATCC 49619
Assay: MIC, NCCLS broth microdilution assay
Type: cell-based, Streptococcus pneumoniae
Details: H = S. pneumoniae ATCC 49619
Attribute Measured: Minimum Inhibitory Concentration (MIC)

Consider the reported Minimum Inhibitory Concentration (MIC) for these molecules:
1. Cn1cc(NC(=O)c2cc(NC(=O)c3ccc(F)cc3)cn2C)cc1C(=O)NCCN1CCOCC1 = + (+ = 12 ≦ MIC ≦ 32)
2. Cn1cc(NC(=O)c2ccc(F)cc2F)cc1C(=O)Nc1cc(C(=O)Nc2cc(C(=O)OCCN3CCOCC3)n(C)c2)n(C)c1 = +++ (+++ = MIC ≦ 4)
3. Cn1cc(NC(=O)c2cc(NC(=O)c3cc(NC(=O)c4cccc(C(F)(F)F)c4)cn3C)cn2C)cc1C(=O)NCCN1CCOCC1 = + (+ = 12 ≦ MIC ≦ 32)
4. Cn1cc(NC(=O)c2cc(NC(=O)c3cc(NC(=O)c4cccc(F)c4)cn3C)cn2C)cc1C(=O)NCCN1CCOCC1 = + (+ = 12 ≦ MIC ≦ 32)
5. Cn1cc(NC(=O)c2cc(NC(=O)c3cc(NC(=O)c4ccc(Cl)cc4)cn3C)cn2CCN2CCOCC2)cc1C(=O)NCCN1CCOCC1 = +++ (+++ = MIC ≦ 4)
6. Cn1cc(NC(=O)c2cc(NC(=O)c3cc(NC(=O)c4ccc(C#N)cc4)cn3C)cn2C)cc1C(=O)NCCN1CCOCC1 = +++ (+++ = MIC ≦ 4)

Okay, now this molecule:
Query string: Query (molecule): Cn1cc(NC(=O)c2cc(NC(=O)c3cc(NC(=O)c4ccc(F)cc4F)cn3C)cn2C)cc1C(=O)NCCN1CCCC1 ; field requested: Minimum Inhibitory Concentration (MIC)
Result string: +++ (+++ = MIC ≦ 4)

---

System: E. faecalis ATCC 29212
Assay: MIC, NCCLS broth microdilution assay
Assay type: cell-based, Enterococcus faecalis
Details: C = E. faecalis ATCC 29212
Attribute Measured: Minimum Inhibitory Concentration (MIC)

Consider the reported Minimum Inhibitory Concentration (MIC) for these molecules:
1. Cc1cc(NC(=O)c2cc(NC(=O)c3cc(NC(=O)c4ccc(F)cc4F)cn3C)cn2CCCN(C)C)sn1 = +++ (+++ = MIC ≦ 4)
2. C[C@@H]1CN(CCNC(=O)c2cc(NC(=O)c3cc(NC(=O)c4ccc(F)cc4F)cn3C)cn2C)C[C@H](C)O1 = +++ (+++ = MIC ≦ 4)
3. Cn1cc(NC(=O)c2cc(NC(=O)c3cc(NC(=O)c4ccc(F)cc4F)cn3C)cn2C)cc1C(=O)NCCc1ccccn1 = +++ (+++ = MIC ≦ 4)
4. Cn1cc(NC(=O)c2cc(NC(=O)c3cc(NC(=O)c4ccc(F)cc4)cn3C)cn2C)cc1C(=O)NCCN1CCOCC1 = ++ (++ = 4 < MIC < 12)
5. Cn1cc(NC(=O)c2cc(NC(=O)c3cc(NC(=O)c4ccc(C#N)cc4)cn3C)cn2C)cc1C(=O)NCCN1CCOCC1 = +++ (+++ = MIC ≦ 4)

Query string: Query (molecule): Cc1cc(NC(=O)c2cc(NC(=O)c3cc(NC(=O)c4ccc(F)cc4F)cn3C)cn2CCN2CCOCC2)sn1 ; field requested: Minimum Inhibitory Concentration (MIC)
Result string: +++ (+++ = MIC ≦ 4)

Query string: # repeat for Cc1cc(NC(=O)c2cc(NC(=O)c3cc(NC(=O)c4ccc(Cl)cc4F)cn3CCCN3CCC(O)CC3)c[nH]2)sn1
Result string: +++ (+++ = MIC ≦ 4)

Query string: # repeat for Cn1cc(NC(=O)c2cc(NC(=O)c3ccc(Cl)c(Cl)c3)cn2C)cc1C(=O)NCCN1CCOCC1
Result string: ++ (++ = 4 < MIC < 12)

Query string: # repeat for Cn1cc(NC(=O)c2cc(NC(=O)c3ccc(F)cc3F)cn2C)cc1C(=O)NCCN1CCCCC1
Result string: +++ (+++ = MIC ≦ 4)

Query string: # repeat for Cn1cc(NC(=O)c2cc(NC(=O)c3cc(NC(=O)c4ccc(F)cc4F)cn3C)cn2C)cc1C(=O)NCCc1ccncc1
Result string: +++ (+++ = MIC ≦ 4)

Query string: # repeat for CN(C)CCCNC(=O)c1cc(NC(=O)c2cc(NC(=O)c3cc(NC(=O)c4ccc(Cl)cc4F)c[nH]3)cn2C)cn1C
Result string: ++ (++ = 4 < MIC < 12)

Query string: # repeat for Cn1cc(NC(=O)c2cc(NC(=O)c3cc(NC(=O)c4ccc(Cl)cc4F)cn3C)cn2CCCCl)cc1C(=O)NCCN1CCOCC1
Result string: +++ (+++ = MIC ≦ 4)

Query string: # repeat for Cn1cc(NC(=O)c2cc(NC(=O)c3ccc(Cl)cc3F)c[nH]2)cc1C(=O)Nc1cc(C(=O)NCCN2CCCCC2)n(CCN2CCCCC2)c1
Result string: +++ (+++ = MIC ≦ 4)
